- Tested on: NCI-H522 lung
- PROTOCOL_DETAILS: NCI tumour cell line growth inhibition, 48 h
ASSAY_READOUT: TGI

The examples below pair each entry with its known result.
1) CC1(C)CCC(C)(C)c2cc(NC(=O)c3ccc(C(=O)O)cc3)ccc21 | > 89.3 µM
2) CCOc1cccc(-c2cc(=O)c3cc4c(cc3[nH]2)OCO4)c1 | 0.684 µM
3) N=C(N)c1ccc(N=Nc2c(O)ccc3cc4c(N=Nc5ccc(C(=N)N)cc5)c(O)ccc4cc23)cc1 | > 100 µM
4) CC(C)OP(=O)(OC(C)C)C(=NCCN=C(NNc1ccccc1[N+](=O)[O-])P(=O)(OC(C)C)OC(C)C)NNc1ccccc1[N+](=O)[O-] | > 100 µM
5) CN(C)CCS(=O)(=O)Nc1cc(-c2ccc3ncc(C#N)c(Nc4ccc(F)c(Cl)c4)c3c2)cnc1Cl | 0.883 µM

// for each compound in input: emit TGI
1. CN1CC2=C(NC(=S)NC2c2ccccc2Cl)/C(=C/c2ccccc2Cl)C1 (stereo not given)
2. Cc1nc2c3c(ccc2[nH]c1=O)C(=O)c1ccccc1C3=O
3. C[N+]12C=CC=C1C(N1CCCC1)c1scc(-c3ccc(F)cc3)c12 (stereo not given)
4. Cn1c(=O)c(Oc2ccc(F)cc2F)cc2cnc(NC3CCOCC3)nc21
5. O=S(=O)(O)c1ccc2c(N=Nc3ccccc3)c(O)ccc2c1
6. CCCCCCCCCCOCCOCCOCCOCCCCC(O)CCCCCCCC1=C[C@H](C)OC1=O (stereo not given in full)
7. O=c1cccc2n1CC1CNC[C@H]2C1

Output:
> 100 µM
> 100 µM
> 100 µM
> 25 µM
> 100 µM
21.1 µM
> 100 µM

---

- Test system: HCT-116 colon
- PROTOCOL_DETAILS: NCI tumour cell line growth inhibition, 48 h; in the data active = GI50 below about 0.43 µM; inactive = the rest
Hi! Could you answer with just one of these? active, inactive

Here are 4 compounds together with their reported answers.
1) O=C1NC(=NCCc2ccccn2)S/C1=C\c1ccc2ncccc2c1 | inactive
2) COc1ccc(NC(=O)c2ccc(NC3=C(Cl)C(=O)N(Cc4ccccc4)C3=O)cc2)c(OC)c1 | inactive
3) N#Cc1c(N/N=C\c2ccc(Cl)cc2)nc(N)nc1N1CCOCC1 | inactive
4) Nc1ncn([C@H]2C[C@H](OP(=O)(O)OC[C@H]3O[C@@H](n4cnc5c(=O)[nH]c(N)nc54)C[C@@H]3O)[C@@H](CO)O2)c(=O)n1 | inactive

Would you kindly look at the next entry?
Input: Each compound tested received a call. Report the one for CC(C)Cc1ccc(C(C)C(=O)NCc2ccc(Cn3c(=O)sn(CCCI)c3=O)cc2)cc1 (centres undefined) .
Output: active

---

- System: ACHN renal
- PROTOCOL_DETAILS: NCI tumour cell line growth inhibition, 48 h
ASSAY_READOUT: TGI (µM)
Give bare numbers, in µM.

Record excerpt, results attached:
1. S=C1CC(c2ccccc2)Sc2cc(Cl)ccc2N1 (stereo not given) | 27
2. C=C1CC2(CCS(=O)(=O)c3ccccc32)OC1=O (stereo not given) | 23.7
3. Cc1ccc2c3c1[C@@H]1O[C@@H]1c1cccc(c1-3)[C@@H]1O[C@H]21 | 31

Switching to the query record.
Entry O=C1CC(N2C(=O)/C(=C/C(Cl)=C\c3ccc([N+](=O)[O-])cc3)SC2=S)C(=O)N1c1ccc(O)cc1 (stereo not given) — recorded TGI = 2.76

Values were extracted from PubChem BioAssay (NCI).
